Quick reference for kon among some binders
Target System: feline FcRn (FCN-F82W3, Acrobiosystems) (feline)
Protocol Text: SPR Carterra, IgG coupled, pH 6.0
Use M⁻¹ s⁻¹ as the unit, but write only the number.

Examples with their reported kon follow.
[[record]]
binder = "anti-NGF feline IgG1a, Fc variant S434Y, S254K (antibody, part only; not given: anti-NGF variable domains, light chain, not shown: another chain or arm of the molecule; small tags and cut ends) Fc: PPEMLGGPSIFIFPPKPKDTLSIKRTPEVTCLVVDLGPDDSDVQITWFVDNTQVYTAKTSPREEQFNSTYRVVSVLPILHQDWLKGKEFKCKVNSKSLPSPIERTISKAKGQPHEPQVYVLPPAQEELSRNKVSVTCLIKSFHPPDIAVEWEITGQPEPENNYRTTPPQLDSDGTYFVYSKLSVDRSHWQRGNTYTCSVSHEALHYHHTQKSLTQSPGK"
recorded_measurement = "1.61e+06"

[[record]]
binder = "anti-NGF feline IgG1a, Fc variant S428L, E380T, S434R (antibody, part only; not given: anti-NGF variable domains, not shown: another chain or arm of the molecule; small tags and cut ends) Fc: PPEMLGGPSIFIFPPKPKDTLSISRTPEVTCLVVDLGPDDSDVQITWFVDNTQVYTAKTSPREEQFNSTYRVVSVLPILHQDWLKGKEFKCKVNSKSLPSPIERTISKAKGQPHEPQVYVLPPAQEELSRNKVSVTCLIKSFHPPDIAVTWEITGQPEPENNYRTTPPQLDSDGTYFVYSKLSVDRSHWQRGNTYTCSVLHEALHRHHTQKSLTQSPGK"
recorded_measurement = "3.17e+06"


Now for another entry.
Exercise: Output kon of anti-NGF feline IgG1a, Fc variant S254K (antibody, part only; not given: Anti-NGF variable domains, not shown: another chain or arm of the molecule; small tags and cut ends) Fc: PPEMLGGPSIFIFPPKPKDTLSIKRTPEVTCLVVDLGPDDSDVQITWFVDNTQVYTAKTSPREEQFNSTYRVVSVLPILHQDWLKGKEFKCKVNSKSLPSPIERTISKAKGQPHEPQVYVLPPAQEELSRNKVSVTCLIKSFHPPDIAVEWEITGQPEPENNYRTTPPQLDSDGTYFVYSKLSVDRSHWQRGNTYTCSVSHEALHSHHTQKSLTQSPGK
Key: 521000
